# System: recombinant and non-replicative HIV virus
# measurement-notes: Inhibitory effect on HIV infection to MAGI-CCR5 cells (luciferase reporter virus)
# Type: cell-based
# particulars: Human immunodeficiency virus 1, MAGI-CCR5, 24 h, read-out: HIV-Infection assay IC50
measured-property: pIC50
Note: pIC50 values are expressed as the negative base-10 logarithm of concentration in M.

Illustrative cases are given below, each with its answer.
CS(=O)(=O)c1ccc(CC(=O)NC2CCN(CCC(c3ccccc3)c3ccccc3)CC2)cc1 [Compound 2] : 6.46
C[C@H](CN(c1cccc(F)c1)S(=O)(=O)Cc1ccccc1)N1CCC(NC(=O)Cc2ccccc2F)CC1 [Compound 80] : 7.57
C[C@H](CN(c1ccccc1)S(=O)(=O)Cc1ccccc1)N1CCC(NC(=O)Cc2ccc(C#N)cc2)CC1 [Compound 93] : 8.72
O=C(Cc1ccc(Cl)cc1)NC1CCN(CCC(c2ccccc2)c2ccccc2)CC1 [Compound 1] : 6.48
CC(CC(c1ccccc1)c1ccccc1)N1CCC(NC(=O)Cc2ccc(C#N)cc2)CC1 (centres unmarked) [Compound 65] : 7.14

*Q* Give its pIC50 value. Item: COc1ccc(CC(=O)NC2CCN(CCC(c3ccccc3)c3ccccc3)CC2)cc1 [Compound 3]
*A* 6.06

*Q* Give its pIC50 value. Item: C[C@H](CN(c1cccc(F)c1)S(=O)(=O)Cc1ccccc1)N1CCC(NC(=O)Cc2ccc(C(F)(F)F)cc2)CC1 [Compound 90]
*A* 8.28

*Q* Give its pIC50 value. Item: C[C@H](CN(c1cccc(F)c1)S(=O)(=O)Cc1ccccc1)N1CCC(NC(=O)Cc2ccc(F)cc2F)CC1 [Compound 81]
*A* 7.84

----------
Reported IC50 values for the following molecules.
# Tested on: recombinant and non-replicative HIV virus
# measurement-notes: Inhibitory effect on HIV infection to MAGI-CCR5 cells (luciferase reporter virus)
# Format: cell-based
# particulars: Human immunodeficiency virus 1, MAGI-CCR5, 24 h, read-out: HIV-Infection assay IC50
Number in nM, nothing else.

O=C(Cc1c[nH]c2ccccc12)NC1CCN(CCC(c2ccccc2)c2ccccc2)CC1 [Compound 25] : 1130
C[C@H](CN(c1ccccc1)S(=O)(=O)Cc1ccccc1)N1CCC(NC(=O)Cc2ccc(F)cc2F)CC1 [Compound 113] : 4.6
N#Cc1ccc(CC(=O)NC2CCN(CCC(c3ccccc3)c3ccccc3)CC2)cc1 [Compound 24] : 384

*Q* Give its IC50 value. Item: O=C(CC1CCCCC1)NC1CCN(CCC(c2ccccc2)c2ccccc2)CC1 [Compound 28]
*A* 2540

----------
# target-under-test: CCR5 receptor (Homo sapiens, UniProt P51681)
# Sequence (P51681 whole entry): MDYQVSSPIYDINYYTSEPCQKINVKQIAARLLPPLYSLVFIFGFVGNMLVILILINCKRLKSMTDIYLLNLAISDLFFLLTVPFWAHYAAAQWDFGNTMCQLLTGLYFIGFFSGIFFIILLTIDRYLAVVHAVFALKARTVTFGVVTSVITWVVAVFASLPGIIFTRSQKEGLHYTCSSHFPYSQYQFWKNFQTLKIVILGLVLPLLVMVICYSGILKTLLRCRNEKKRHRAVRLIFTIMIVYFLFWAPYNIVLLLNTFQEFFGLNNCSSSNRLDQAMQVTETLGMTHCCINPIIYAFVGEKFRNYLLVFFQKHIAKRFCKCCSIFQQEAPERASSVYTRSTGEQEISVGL
# measurement-notes: Aequorin-based calcium flux assay, antagonist mode (against reference agonist MIP-1β); note: key: Inactive means >30000 nm
# Assay type: cell-based
# Set-up: expressed in transfected cells; host or cells: Chinese hamster ovary (CHO) cells coexpressing apoaequorin and Gα16
# particulars: CHO cells expressing CCR5; vs reference agonist MIP-1β; read-out: Aequorin/Ca++ Antagonist assay IC50
measured-property: IC50 (nM)
Number in nM, nothing else.

CN(C(=O)C(c1ccccc1)N1Cc2ccccc2C1=O)C1CCN(CCC(c2ccccc2)c2ccccc2)CC1 (centres unmarked) : 1230

Attention now turns to another entry.
*Q* Give its IC50 value. Item: "CN(C(=O)CN1Cc2ccccc2C1=O)C1CCN(CCC(c2ccccc2)c2ccccc2)CC1"
*A* 1430

----------
# Tested on: recombinant and non-replicative HIV virus
# measurement-notes: Inhibitory effect on HIV infection to MAGI-CCR5 cells (luciferase reporter virus)
# Type: cell-based
# particulars: Human immunodeficiency virus 1, MAGI-CCR5, 24 h, read-out: HIV-Infection assay IC50
measured-property: IC50 (nM)
Number in nM, nothing else.

Illustrative cases are given below, each with its answer.
O=C(Cc1ccc(OC(F)(F)F)cc1)NC1CCN(CCC(c2ccccc2)c2ccccc2)CC1 : 425
C[C@H](CN(c1cccc(F)c1)S(=O)(=O)Cc1ccccc1)N1CCC(NC(=O)Cc2ccc(F)cc2)CC1 : 3
O=C(Cc1ccccc1)NC1CCN(CCC(c2ccccc2)c2ccccc2)CC1 : 1420

Attention now turns to another entry.
*Q* So what IC50 did CC(CC(c1ccccc1)c1ccccc1)N1CCC(NC(=O)Cc2ccc(S(C)(=O)=O)cc2)CC1 (stereo not shown) get with recombinant and non-replicative HIV virus?
*A* 25.6

----------
# target-under-test: CCR5 receptor (Homo sapiens, UniProt P51681)
# measurement-notes: Aequorin-based calcium flux assay, agonist mode
# Assay type: cell-based
# Parameters: expressed in transfected cells; host or cells: Chinese hamster ovary (CHO) cells coexpressing apoaequorin and Gα16
# particulars: CHO cells expressing CCR5, apoaequorin and Gα16; read-out: Aequorin/Ca++ assay EC50
Reported pEC50 values for the following compounds.
Note: pEC50 values are expressed as the negative base-10 logarithm of concentration in M.

C[C@H](CN(c1cccc(F)c1)S(=O)(=O)Cc1ccccc1)N1CCC(NC(=O)Cc2ccc(F)cc2)CC1 [Compound 97] : 7.03
O=C(Cc1ccc(OC(F)(F)F)cc1)NC1CCN(CCC(c2ccccc2)c2ccccc2)CC1 [Compound 5] : 6.84
CC(CC(c1ccccc1)c1ccccc1)N1CCC(NC(=O)Cc2ccc(C#N)cc2)CC1 (stereo not drawn) [Compound 65] : 6.93

*Q* Give its pEC50 value. Item: N#Cc1ccc(CC(=O)NC2CCN(CCC(c3ccccc3)c3ccccc3)CC2)cc1 [Compound 24]
*A* 6.98

*Q* Give its pEC50 value. Item: O=C(Cc1c[nH]c2ccccc12)NC1CCN(CCC(c2ccccc2)c2ccccc2)CC1 [Compound 25]
*A* 7.04

*Q* Give its pEC50 value. Item: CC(CC(c1ccccc1)c1ccccc1)N1CCC(NC(=O)Cc2ccc(S(C)(=O)=O)cc2)CC1 (stereo not drawn) [Compound 64]
*A* 7.08

The reported measurements were obtained from patent US20090054451A1.
